Value source: patent US20250099448A1

Target protein (sequence): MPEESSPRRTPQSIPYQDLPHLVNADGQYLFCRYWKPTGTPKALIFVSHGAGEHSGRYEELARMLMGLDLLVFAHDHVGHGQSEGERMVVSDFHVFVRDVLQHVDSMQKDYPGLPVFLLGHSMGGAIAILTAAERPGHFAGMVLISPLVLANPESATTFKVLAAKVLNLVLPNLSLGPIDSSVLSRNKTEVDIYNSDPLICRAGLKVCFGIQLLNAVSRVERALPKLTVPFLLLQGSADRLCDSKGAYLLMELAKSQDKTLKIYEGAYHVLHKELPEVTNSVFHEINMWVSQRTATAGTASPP
Classes (IC50): bucket A (below 3 nM), bucket B (3 nM to below 50 nM), bucket C (50 nM or more)

Please review the following examples before continuing.
**Q:** Sort CS(=O)(=O)c1cccc(CC2CC3(C2)CN(C(=O)N2CC4(CC(c5nnc(C6CC6)[nH]5)C4)C2)C3)c1 into one of the categories.
**A:** bucket A

**Q:** Any idea which band O=C(N1CC2(CC(c3nnc(C4(O)CC4)[nH]3)C2)C1)N1CC2(C1)CN(S(=O)(=O)c1ccccc1OC(F)(F)F)C2 is in?
**A:** bucket B

**Q:** Could you tell me which band CC(C)(C)CS(=O)(=O)N1CC2(CN(C(=O)N3CC4(CC(c5nnc(C6CC6)[nH]5)C4)C3)C2)C1 belongs to?
**A:** bucket C

**Q:** State the band of O=C(N1CC2(CC(c3nc(C4CC4)n[nH]3)C2)C1)N1CC2(CN(Cc3nc(C(F)(F)F)co3)C2)C1
**A:** bucket B

**Q:** Which class is correct for the following compound? N=S(=O)(c1cccc(OC(F)(F)F)c1)C1CC2(C1)CN(C(=O)N1CC3(CC(c4nnc(C5CC5)[nH]4)C3)C1)C2 (stereo not drawn)
**A:** bucket B

**Q:** Which category fits this record: O=C(N1CC2(CC(c3nc(C4(O)CC4)n[nH]3)C2)C1)N1CC2(CN(Cc3ccc(S(=O)(=O)C(F)(F)F)cc3F)C2)C1
**A:** bucket A

Next:
**Q:** Which class holds O=C(N1CC(c2ccc(Oc3ccccc3Cl)nc2)C1)N1CC2(CC(c3nnc(C4(O)CC4)[nH]3)C2)C1 ?
**A:** bucket A
